The reported measurements were obtained from ChEMBL document CHEMBL4689842.

# Tested on: HEK-293T
# test method notes: Multiplex assay against HEK293T
# Assay type: toxicity, cell-based
# condition label: human, 12 h, 10 µM, compound concentration 10 uM, replicate 1
property label: Population Healthy Nuclei (%)
Just the number plus its unit, please.

A selection of reference data follows.
molecule	Population Healthy Nuclei (%)
Cc1ccc2c(c1)c1c(n2CCc2ccc(C)nc2)CCN(C)C1 [LATREPIRDINE]	12%
CC(C)c1noc(N2CCC(COc3ccc(-c4ccc(S(C)(=O)=O)cc4)nc3)CC2)n1	11%

Query `O=c1cc(N2CCOCC2)oc2c(-c3cccc4c3sc3ccccc34)cccc12` yields Population Healthy Nuclei (%) of 14%

response.value for `C=CC(=O)Nc1ccc2[nH]c(=O)n(C3CCN(Cc4ccc(-c5nc6cc[nH]c(=O)c6cc5-c5ccccc5)cc4)CC3)c2c1` (field: Population Healthy Nuclei (%)) = 48%

Input CC1=C(C(=O)Nc2cc3cn[nH]c3cc2F)C(c2ccc(C(F)(F)F)cc2)CC(=O)N1 (stereo not given) . Output Population Healthy Nuclei (%): 41%

----------
# System: HEK-293T
# test method notes: Multiplex assay against HEK293T
# Format: toxicity, cell-based
# condition label: human, 24 h, 10 µM, compound concentration 10 uM, replicate 2
With a cut-off of 60%, any Population Apoptotic (%) strictly below it is called fulfilled; any Population Apoptotic (%) meeting it or above is called not fulfilled.

Would you please look over these solved cases?
compound	measurement target	class name
CCCSc1nc(N[C@@H]2C[C@H]2c2ccc(F)c(F)c2)c2nnn([C@@H]3C[C@H](OCCO)[C@@H](O)[C@H]3O)c2n1	HEK-293T	not fulfilled
C=CC(=O)Nc1cccc(Sc2nc(Nc3ccc(N4CCN(C)CC4)cc3)ncc2Cl)c1	HEK-293T	fulfilled
C=CC(=O)Nc1ccc2[nH]c(=O)n(C3CCN(Cc4ccc(-c5nc6cc[nH]c(=O)c6cc5-c5ccccc5)cc4)CC3)c2c1	HEK-293T	fulfilled
CC1=C(C(=O)Nc2cc3cn[nH]c3cc2F)C(c2ccc(C(F)(F)F)cc2)CC(=O)N1 (centres undefined)	HEK-293T	fulfilled

From here, focus on the item given below.
Input: Given the entry `CCc1ccc(OCc2ccccc2C(=O)Nc2ccc3nc(C)cc(N)c3c2)cc1.Cl` , would its reported Population Apoptotic (%) be below 60%?
Output: fulfilled

----------
# Test system: U2OS
# test method notes: Multiplex assay against U2OS
# Assay type: toxicity, cell-based
# condition label: human, 12 h, 1 µM, compound concentration 1 uM, replicate 1
property label: Total Cell Count
Please respond with just the number, no unit label.

For orientation, consider the following solved cases.
compound	Total Cell Count
O=C(c1cc2c(cc1F)OC(c1ccc(F)cc1)(c1ccc(Cl)cc1Cl)O2)N1CCOCC1 (stereo not drawn)	120
COC(=O)C1=C(C)NC(C)=C(C(=O)OCCCN2CCC(c3ccccc3)(c3ccccc3)CC2)[C@H]1c1cccc([N+](=O)[O-])c1	893
O=c1cc(N2CCOCC2)oc2c(-c3cccc4c3sc3ccccc34)cccc12	120
Cc1cccc(CN2CCN(C(c3ccccc3)c3ccc(Cl)cc3)CC2)c1.Cl.Cl (stereo not drawn)	182
COc1ccc(-c2ccc3ncc4c(c3c2)n(-c2ccc(N3CCNCC3)c(C(F)(F)F)c2)c(=O)n4C)cn1.O=C(O)/C=C\C(=O)O	182

Noted Total Cell Count for `CC(C)NC(=O)N1CC[C@H](NC2=Nc3cc(F)ccc3N(CC(F)F)c3ccc(Cl)cc32)C1` , tested on U2OS: 469

Total Cell Count of `CNC(=O)Nc1ccc2c(c1)[C@@]1(CC2)OC(=O)N(CC(=O)N(Cc2ccc(F)cc2)[C@@H](C)C(F)(F)F)C1=O` , assay on U2OS, is 248

The reported Total Cell Count value, U2OS, for CC1=C(C(=O)Nc2cc3cn[nH]c3cc2F)C(c2ccc(C(F)(F)F)cc2)CC(=O)N1 (stereo not drawn) reads 190
